Values were extracted from the supplement of paper PMC11196671.

# EXPERIMENT NOTES: MHET released, HPLC; higher = more MHET released; extreme values may be limits of the assay
# APPLIED CONDITIONS: PET substrate: cryPow; 60 °C; pH 5.5; 24 h
VALUE KIND: MHET released (mM)
Just the number in mM, nothing appended.

Some sequences with known MHET released results, for comparison:
SEQUENCE INPUT	MHET released, mM
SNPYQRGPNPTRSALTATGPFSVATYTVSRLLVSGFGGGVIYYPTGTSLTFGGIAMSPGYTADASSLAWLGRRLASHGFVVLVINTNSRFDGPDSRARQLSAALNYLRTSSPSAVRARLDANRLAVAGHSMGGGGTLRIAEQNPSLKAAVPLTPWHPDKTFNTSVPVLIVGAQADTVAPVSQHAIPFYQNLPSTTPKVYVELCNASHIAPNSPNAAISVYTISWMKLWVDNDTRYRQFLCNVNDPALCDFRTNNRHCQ [LCC-ICCG I6M]	0.178
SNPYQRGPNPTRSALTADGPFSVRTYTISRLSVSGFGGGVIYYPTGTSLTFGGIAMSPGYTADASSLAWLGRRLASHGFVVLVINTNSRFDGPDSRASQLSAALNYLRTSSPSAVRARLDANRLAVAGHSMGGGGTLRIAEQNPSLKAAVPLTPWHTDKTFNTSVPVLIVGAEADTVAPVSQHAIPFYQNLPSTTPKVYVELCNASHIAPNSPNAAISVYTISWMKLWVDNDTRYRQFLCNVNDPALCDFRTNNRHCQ [LCC-ICCG RIP]	0.199
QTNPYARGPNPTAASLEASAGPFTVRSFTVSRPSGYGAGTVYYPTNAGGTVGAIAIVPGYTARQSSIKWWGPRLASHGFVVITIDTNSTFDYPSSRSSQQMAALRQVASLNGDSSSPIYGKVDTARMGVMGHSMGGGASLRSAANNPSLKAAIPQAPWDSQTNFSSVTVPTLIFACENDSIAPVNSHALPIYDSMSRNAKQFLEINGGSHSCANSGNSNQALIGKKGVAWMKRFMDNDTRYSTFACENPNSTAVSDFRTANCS [DuraPETase]	0

Data request, read-out MHET released, for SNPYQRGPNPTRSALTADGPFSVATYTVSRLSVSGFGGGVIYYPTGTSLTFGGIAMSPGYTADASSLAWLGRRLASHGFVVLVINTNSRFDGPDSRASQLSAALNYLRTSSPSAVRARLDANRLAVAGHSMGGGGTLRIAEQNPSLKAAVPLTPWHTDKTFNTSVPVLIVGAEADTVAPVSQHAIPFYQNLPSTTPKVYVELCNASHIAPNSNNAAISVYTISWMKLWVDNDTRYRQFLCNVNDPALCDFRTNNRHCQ [LCC-ICCG]
0.203

Data request, read-out MHET released, for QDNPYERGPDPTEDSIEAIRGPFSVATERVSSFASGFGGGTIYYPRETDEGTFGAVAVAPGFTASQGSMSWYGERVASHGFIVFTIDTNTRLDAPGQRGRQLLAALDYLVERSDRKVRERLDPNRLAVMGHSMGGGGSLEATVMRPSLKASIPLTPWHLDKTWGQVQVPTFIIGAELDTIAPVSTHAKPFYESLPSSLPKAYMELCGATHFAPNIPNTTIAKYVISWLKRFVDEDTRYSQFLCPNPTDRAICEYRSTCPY [Cut190*SS]
0.0526

Data request, read-out MHET released, for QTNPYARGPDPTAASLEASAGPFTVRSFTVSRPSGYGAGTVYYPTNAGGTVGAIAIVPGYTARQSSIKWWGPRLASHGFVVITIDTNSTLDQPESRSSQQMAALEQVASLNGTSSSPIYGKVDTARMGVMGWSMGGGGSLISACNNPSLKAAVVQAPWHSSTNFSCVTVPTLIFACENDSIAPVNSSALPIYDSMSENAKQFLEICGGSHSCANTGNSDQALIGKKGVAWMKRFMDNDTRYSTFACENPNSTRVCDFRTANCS [Z1-PETase]
0.053
